Recorded Specific Activity (intracellular Ca ion level-increasing activity) for the following compounds
- System name: hOT7T175 (Homo sapiens, UniProt Q969F8, L364H)
- Sequence (Q969F8 whole entry L364H): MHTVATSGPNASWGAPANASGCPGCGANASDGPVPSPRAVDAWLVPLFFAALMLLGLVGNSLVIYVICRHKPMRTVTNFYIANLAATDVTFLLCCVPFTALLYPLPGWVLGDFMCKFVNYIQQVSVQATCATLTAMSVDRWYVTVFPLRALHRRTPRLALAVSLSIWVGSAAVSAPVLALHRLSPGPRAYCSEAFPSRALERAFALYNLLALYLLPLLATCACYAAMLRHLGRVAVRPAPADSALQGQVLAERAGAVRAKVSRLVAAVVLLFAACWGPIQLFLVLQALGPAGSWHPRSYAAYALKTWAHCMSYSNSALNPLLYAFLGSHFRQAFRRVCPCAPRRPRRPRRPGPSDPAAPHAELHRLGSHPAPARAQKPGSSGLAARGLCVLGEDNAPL
- Measurement notes: Intracellular Ca ion level-increasing activity using FLIPR in hOT7T175/CHO
- Assay type: cell-based
- Set-up: expressed in transfected cells; host or cells: CHO/dhfr- cells, obtained from ATCC
- Measurement context: relative, Metastin (1-54) = 1
Number only, please.

(Q) Quick one: Specific Activity (intracellular Ca ion level-increasing activity) of CNC(=N)NCCC[C@H](NC(=O)[C@H](CC(C)C)NC(=O)NNC(=O)[C@H](Cc1ccccc1)NC(=O)[C@H](CO)NC(=O)[C@H](CC(N)=O)NC(=O)[C@@H](Cc1c[nH]c2ccccc12)NC(=O)[C@@H](CC(N)=O)NC(=O)[C@H](N)Cc1ccc(O)cc1)C(=O)N[C@@H](Cc1ccccc1)C(N)=O [Compound No. 238] ?
(A) 1
